molecular target: memapsin 2 (Homo sapiens); assay: Inhibition of memapsin 2 beta-secretase activity (fluorogenic substrate FS-2); assay type: biochemical; details: memapsin 2, pH 4, 37° C., 20 minutes pre-incubation; read-out: M2Ki
Sequence (P56817 46-501): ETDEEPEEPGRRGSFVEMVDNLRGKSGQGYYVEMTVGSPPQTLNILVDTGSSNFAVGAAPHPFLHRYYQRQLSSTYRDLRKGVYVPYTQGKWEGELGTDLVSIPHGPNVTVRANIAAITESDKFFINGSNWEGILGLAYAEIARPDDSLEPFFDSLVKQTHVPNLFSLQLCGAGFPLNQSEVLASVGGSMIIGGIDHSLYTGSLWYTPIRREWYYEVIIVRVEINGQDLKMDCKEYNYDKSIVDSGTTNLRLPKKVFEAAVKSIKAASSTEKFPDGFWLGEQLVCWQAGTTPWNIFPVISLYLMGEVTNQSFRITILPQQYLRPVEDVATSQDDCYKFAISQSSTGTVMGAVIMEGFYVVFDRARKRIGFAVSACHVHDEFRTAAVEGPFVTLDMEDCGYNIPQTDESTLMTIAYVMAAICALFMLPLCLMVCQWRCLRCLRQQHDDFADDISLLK
Recorded Ki, one value per entry.

Given the entry Cc1csc(CNC(=O)c2cccc(C(=O)N[C@@H](Cc3ccccc3)[C@H](O)CNCc3ccc(CS(C)(=O)=O)c(C)n3)c2)n1 [Compound 101] , report its measured Ki.
> 501 nM

New cases:
Recorded Ki for Cc1csc(CN(C)C(=O)c2cccc(C(=O)N[C@@H](Cc3ccccc3)[C@H](O)CNCc3cc(C(C)C)cc(N(C)S(C)(=O)=O)c3)c2)n1 [Compound 146] , please?
< 300 nM

Also need Cc1csc(CN(C)C(=O)c2cccc(C(=O)N[C@@H](Cc3ccccc3)[C@H](O)CNCc3cc(F)cc(C(F)(F)F)c3)c2)n1 [Compound 28] , thanks.
< 300 nM
